All figures here come from patent US7291641B2.

Counter-ions that a name gives are not always drawn.
attribute.measured: melting point

• c1ccc(-c2ccc(-c3c[nH]c(CCNC4CCCCC4)n3)cc2)cc1 = 207 to 210 °C
• CCCCOC(=O)NCCc1nc(-c2ccc(-c3ccccc3Br)cc2)c[nH]1 = 109.6 °C
• Brc1cccc(-c2c[nH]c([C@@H](NCC3CCCCC3)C3CCCCC3)n2)c1 [Example 289] = 134.3 °C
• N[C@H](Cc1ccccc1)c1nc(-c2ccc(F)cc2)c[nH]1 (as salt: hydrochloride) = 173 to 180 °C

---

Counter-ions that a name gives are not always drawn.
# maps each entry to its melting point
attribute.measured: melting point

• Fc1ccc(-c2c[nH]c([C@@H](NCC3CCCCC3)C3CCCCC3)n2)cc1 [Example 293] = 184.8 °C
• CCCCCCC(N)c1nc(-c2ccccc2OC)c[nH]1 (racemic) (as salt: hydrochloride) = 238 to 240 °C
• O=C(NCCc1nc(-c2ccc(-c3ccc(Br)cc3)cc2)c[nH]1)OCC1CCCCC1 = 130 to 132 °C
• C#CCN(C)Cc1nc(-c2cc(C(C)(C)C)c(O)c(C(C)(C)C)c2)cs1 = 210 to 215 °C
• CC(C)(C)OC(=O)N[C@H](CC1CCCCC1)c1nc(-c2ccccc2)c[nH]1 = 184 to 185 °C
• Fc1ccc(-c2c[nH]c([C@@H](NCC3CC3)C3CCCCC3)n2)cc1 (as salt: hydrochloride) = 221.4 °C
• c1ccc(-c2c[nH]c([C@@H](NC3CCC3)C3CCCCC3)n2)cc1 (as salt: hydrochloride) = 210 to 212 °C
• CCOC(=O)NCCc1nc(-c2ccc(-c3ccccc3)cc2)c[nH]1 = 132.5 °C

---

Structures can show the parent of a compound that is named as a salt.
# maps each entry to its melting point
attribute.measured: melting point

• CCCCOC(=O)NCCc1nc(-c2ccc(-c3ccccc3OC)cc2)c[nH]1 = 116 to 121 °C
• CCCCCCC(NC(C)C)c1nc(-c2ccccc2)c[nH]1 (racemic) = 114 to 116 °C
• CCCCC(NC(=O)OC(C)(C)C)c1nc(-c2ccccc2)c[nH]1 (racemic) = 126 °C
• CCCCCCN(Cc1ccccc1)Cc1nc(-c2ccc(-c3ccccc3)cc2)c[nH]1 = 120 to 122 °C
• c1ccc(CNCCc2nc(-c3ccc(-c4ccccc4)cc3)c[nH]2)cc1 = 174 to 176 °C
• CCCCCCC(NCC1CCCCC1)c1nc(-c2ccccc2)c[nH]1 (racemic) (as salt: hydrochloride) = 142 to 144 °C
• c1ccc(CNCCCc2nc(-c3ccc(-c4ccccc4)cc3)c[nH]2)cc1 = 254 to 256 °C
• c1ccc(CNCc2nc(-c3ccc(-c4ccccc4)cc3)c[nH]2)cc1 (as salt: hydrochloride) = > 250 °C
• c1ccc(CN[C@H](CC2CCCCC2)c2nc(-c3ccccc3)c[nH]2)cc1 = 52 to 54 °C
• CC(C)(C)OC(=O)NCCCc1nc(-c2ccc(-c3ccccc3)cc2)c[nH]1 = 145 to 146 °C
• c1ccc(OCCN[C@H](Cc2c[nH]c3ccccc23)c2nc(-c3ccccc3)c[nH]2)cc1 = 94 to 96 °C
• CCCCOC(=O)NC(C)(C)c1nc(-c2ccc(-c3ccccc3)cc2)c[nH]1 = 170 to 172 °C
• CC(C)COC(=O)NCCc1nc(-c2ccc(C(C)(C)C)cc2)c[nH]1 = 110.6 °C
• CC(C)(C)NC(=S)NCCc1nc(-c2ccc(-c3ccccc3)cc2)c[nH]1 = 98 to 99 °C
• Cn1cc(-c2ccc(F)cc2)nc1[C@@H](NC1CCCCC1)C1CCCCC1 (as salt: hydrochloride) = 190 to 194 °C
• CC(C)CCC(NC1CCCCC1)c1nc(-c2ccc(F)cc2)c[nH]1 (racemic) (as salt: hydrochloride) = 230 to 232 °C
• CCCCOC(=O)NCCc1nc(-c2ccc(C(C)(C)C)cc2)c[nH]1 = 106 to 108 °C
• CCCCCCC(N)c1nc(-c2cccc(OC)c2)c[nH]1 (racemic) (as salt: hydrochloride) = 110 to 112 °C
• c1ccc(CNC(c2ccccc2)c2nc(-c3ccccc3)c[nH]2)cc1 (racemic) = 144 to 146 °C
• CCC[C@@H](NC(=O)OC(C)(C)C)c1nc(-c2ccccc2)c[nH]1 = 156 to 158 °C
• CNCc1nc(-c2ccc(-c3ccccc3)cc2)c[nH]1 (as salt: hydrochloride) = 218 to 220 °C
• CCCCC(=O)NCCc1nc(-c2ccc(-c3ccccc3)cc2)c[nH]1 = 166 to 167 °C
• c1ccc(CNCc2nc(-c3ccccc3)c(-c3ccccc3)[nH]2)cc1 = 160 to 162 °C
• O=C(N[C@H](Cc1c[nH]c2ccccc12)c1nc(-c2ccccc2)c[nH]1)OCc1ccccc1 = 105 to 108 °C
• CCCCCCC(NCCC)c1nc(-c2ccccc2)c[nH]1 (racemic) = 94 to 98 °C
• CCCCCCC(NC(=O)OC(C)(C)C)c1nc(-c2ccc(-c3ccccc3)cc2)c[nH]1 (racemic) = 142 to 144 °C
• CCCCOC(=O)NCCc1nc(-c2ccc(-c3cc(F)ccc3F)cc2)c[nH]1 = 109.5 °C
• CCCCCCC(NC1CCCCC1)c1nc(-c2ccc(Cl)c(Cl)c2)c[nH]1 (racemic) (as salt: hydrochloride) = 194 °C
• CC(C)(C)OC(=O)NCc1nc(-c2ccc(-c3ccccc3)cc2)cn1Cc1ccccc1 = 167 to 169 °C
• NC(Cc1c[nH]c2ccc(F)cc12)c1nc(-c2ccc(F)cc2)c[nH]1 (racemic) (as salt: hydrochloride) = 220 to 222 °C
• CCCCCCC(NC1CCCCC1)c1nc(-c2ccc(F)cc2)c[nH]1 (centres unmarked) = 190 to 192 °C
• CCCCCCC(NC1CCC1)c1nc(-c2ccc(F)cc2)c[nH]1 (racemic) (as salt: hydrochloride) = 144 to 146 °C

---

Structures can show the parent of a compound that is named as a salt.
# maps each entry to its melting point
attribute.measured: melting point

* N[C@H](CC1CCCCC1)c1nc(-c2ccccc2)c[nH]1 (as salt: hydrochloride) [Example 132] | 196 to 198 °C
* NC(Cc1c[nH]c2cc(Cl)ccc12)c1nc(-c2ccccc2)c[nH]1 (racemic) (as salt: hydrochloride) [Example 122] | 210 to 212 °C
* FC(F)(F)c1cccc(-c2c[nH]c([C@@H](NC3CCCCC3)C3CCCCC3)n2)c1 [Example 304] | 186 to 188 °C
* CCCCOC(=O)N[C@@H](C)c1nc(-c2ccc(-c3ccccc3)cc2)c[nH]1 [Example 241] | 118 to 122 °C

---

attribute.measured: melting point

• CCCCOC(=O)NCCc1nc(-c2ccc(-c3cccc(OC)c3)cc2)c[nH]1 = 112 to 113 °C
• CC(C)C[C@@H](NCc1ccccc1)c1nc(-c2ccccc2)c[nH]1 = 134 to 135 °C
• c1ccc(-c2c[nH]c([C@@H](NC3CCCCC3)C3CCCCC3)n2)cc1 = 240 to 242 °C
• Fc1ccc(-c2c[nH]c([C@@H](NC3CCCCCC3)C3CCCCC3)n2)cc1 = 140 to 142 °C

---

Where a name gives a salt, the structure may show the parent alone.
attribute.measured: melting point

- NCCc1nc(-c2ccc(-c3ccccc3)cc2)c[nH]1 (as salt: hydrochloride) [Example 161]: 228 to 230 °C
- CCCCCCC(N)c1nc(-c2ccc(C#N)cc2)c[nH]1 (racemic) (as salt: hydrochloride) [Example 205]: 218 to 220 °C
- CC(C)(C)c1cn(Cc2ccccc2)c([C@@H](Cc2c[nH]c3ccccc23)NCc2ccccc2)n1 [Example 39]: 60 to 62 °C
- CC(C)(C)c1ccc(-c2c[nH]c(CCNC(=O)OC3CCCCC3)n2)cc1 [Example 342]: 127 to 130 °C
- CCCCCCC(NC1CCCCC1)c1nc(C2CCCCC2)c[nH]1 (centres unmarked) [Example 36]: 172 to 174 °C
- CCCCOC(=O)NCCc1nc(-c2ccc(-c3cccc(F)c3F)cc2)c[nH]1 [Example 455]: 90 °C
- NCc1nc(-c2ccccc2)cn1Cc1ccccc1 (as salt: hydrochloride) [Example 107]: 248 to 250 °C
- CCCCCCC(N)c1nc(-c2ccc(F)cc2)c[nH]1 (racemic) (as salt: hydrochloride) [Example 220]: 148 to 150 °C

---

Counter-ions that a name gives are not always drawn.
attribute.measured: melting point

• CCCCS(=O)(=O)NCCc1nc(-c2ccc(-c3ccccc3)cc2)c[nH]1 = 168.5 °C
• CN(C)Cc1nc(-c2ccccc2)cn1Cc1ccccc1 = 78 to 80 °C
• CCCCOC(=O)NCCc1nc(-c2ccc(-c3cccc(Cl)c3)cc2)c[nH]1 = 142.6 °C
• Fc1ccc(-c2c[nH]c([C@@H](NC3CCCCC3)C3CCCCC3)n2)cc1 (as salt: hydrochloride) [Example 264] = > 250 °C
• N[C@H](CC1CCCCC1)c1nc(-c2ccc(-c3ccccc3)cc2)c[nH]1 (as salt: hydrochloride) = 178 to 180 °C
• CN(Cc1nc(-c2ccc(-c3ccccc3)cc2)c[nH]1)C(=O)OC(C)(C)C = 72 to 74 °C
